The reported numbers originate from ChEMBL document CHEMBL3988442.

- Test system: Wolbachia pipientis
- protocol description: Anti-Wolbachia Cell-Based Screen
- Format: functional
- Set-up: scale not given: in the data most compounds retested in dose-response had high values
- conditions used: 5 µM
About 13,000 (27%) of roughly 48,000 compounds showed an effect of 50% or more. This is one part of the list.
observation type: Percent Effect (%)
Give bare numbers, in %.

molecule | unit symbol | Percent Effect
CCOCC1CN(C(=O)COc2ccccc2)Cc2cn(C)nc21 (configuration not stated) | % | -5.674

# return Percent Effect for each item in the list
1. O=C(c1cn(Cc2ccc(Cl)cc2)nn1)N1CCCO1
2. CC1CN(Cc2cccnc2)CCN1c1ccc2nncn2n1 (configuration not stated)
3. CNC(=O)c1csc(-c2cccnc2)n1
4. CC(O)CC(C)(C)CNC(=O)NCc1cccc(-n2ccnc2)c1 (configuration not stated)
5. COc1cccc(CN2CCN(c3ccc4nncn4n3)C(C)C2)c1 (configuration not stated)

OUTPUT:
-12.44
111.3
130
13.1
-8.631

INPUT: Identify Percent Effect associated with the molecule CNC(=O)c1csc(-c2ccoc2)n1
OUTPUT: 6.478
